Origin of the recorded values: paper PMC9529985

ASSAY REMARKS: PAMPA passive permeability
Format: in vitro ADME
PROTOCOL CONDITIONS: PBS pH 7.4, 5 h, room temperature, read-out: permeability coefficient Pe
PARAMETER MEASURED: Papp at 5 h, 200 µM

Returns the measured Papp at 5 h, 200 µM for the input compound. Input: O=S(=O)(NC1=NCc2ccccc2N1)c1cccc2ccccc12 [10f]
5 ×10⁻⁶ cm/s

====

Measured melting point by item

Please review the following examples before continuing.
O=S(=O)(Nc1nc2ccccc2[nH]1)c1ccccc1 [10a] = > 300 °C
O=S(=O)(NC1=NCc2cc(Cl)ccc2N1)c1ccc2ccccc2c1 [10h] = 207 to 209 °C
O=S(=O)(NC1=NCc2ccccc2N1)c1ccc2ccccc2c1 [10g] = > 300 °C
O=S(=O)(NC1=NCc2ccccc2N1)c1ccccc1 [10e] = 182 to 186 °C
Nc1nc2cc(Cl)ccc2n1S(=O)(=O)c1cccc2ccccc12 [11d] = 225 to 229 °C

Alright, here's another compound for you.
Returns the measured melting point for the input compound. Input: Nc1nc2ccccc2n1S(=O)(=O)c1ccc2ccccc2c1 [11c]
188 to 194 °C
